- tested-system: T1, IL-18 receptor (IL-18Rα/IL-18Rβ) overexpressed on HEK-Blue IL-18 cells (Homo sapiens (Human), UniProt Q13478 19-541; O95256 20-599)
- T1 sequence 1: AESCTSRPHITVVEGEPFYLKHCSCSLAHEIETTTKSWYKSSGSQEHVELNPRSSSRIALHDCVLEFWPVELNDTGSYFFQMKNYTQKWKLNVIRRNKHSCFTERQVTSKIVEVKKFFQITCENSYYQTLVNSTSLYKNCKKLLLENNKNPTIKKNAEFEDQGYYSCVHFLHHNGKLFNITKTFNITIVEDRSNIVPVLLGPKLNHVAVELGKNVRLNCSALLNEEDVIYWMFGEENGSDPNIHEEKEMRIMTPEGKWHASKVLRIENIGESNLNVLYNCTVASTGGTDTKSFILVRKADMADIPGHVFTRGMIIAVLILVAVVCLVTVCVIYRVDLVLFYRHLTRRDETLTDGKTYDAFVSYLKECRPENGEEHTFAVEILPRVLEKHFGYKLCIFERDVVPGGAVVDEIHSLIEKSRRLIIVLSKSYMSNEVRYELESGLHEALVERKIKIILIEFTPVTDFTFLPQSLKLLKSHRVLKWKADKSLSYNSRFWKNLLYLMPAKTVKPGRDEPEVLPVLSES
- T1 sequence 2: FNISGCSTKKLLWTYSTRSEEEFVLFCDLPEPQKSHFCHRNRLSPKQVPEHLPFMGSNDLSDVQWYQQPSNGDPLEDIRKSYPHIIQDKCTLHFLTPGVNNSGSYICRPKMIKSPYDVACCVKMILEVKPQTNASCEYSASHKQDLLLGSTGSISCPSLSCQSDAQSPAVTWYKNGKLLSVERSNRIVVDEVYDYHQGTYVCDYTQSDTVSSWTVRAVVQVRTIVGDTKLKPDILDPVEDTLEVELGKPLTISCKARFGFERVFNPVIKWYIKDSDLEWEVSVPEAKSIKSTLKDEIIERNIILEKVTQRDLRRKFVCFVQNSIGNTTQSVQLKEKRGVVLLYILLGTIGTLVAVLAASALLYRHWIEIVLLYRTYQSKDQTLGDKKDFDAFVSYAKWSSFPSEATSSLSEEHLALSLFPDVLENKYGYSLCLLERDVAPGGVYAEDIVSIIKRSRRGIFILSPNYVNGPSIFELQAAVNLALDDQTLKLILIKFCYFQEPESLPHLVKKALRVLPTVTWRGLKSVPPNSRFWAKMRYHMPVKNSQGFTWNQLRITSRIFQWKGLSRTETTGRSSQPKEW
- method-description: cell-based or functional assay
Measured HEK-Blue IL-18: Abs 405 by item
Enter your answer as a number in Abs; do not include the unit.

Look at this binder and give its reported HEK-Blue IL-18: Abs 405. DGL302 (bispecific antibody, V domains shown) V domain 1: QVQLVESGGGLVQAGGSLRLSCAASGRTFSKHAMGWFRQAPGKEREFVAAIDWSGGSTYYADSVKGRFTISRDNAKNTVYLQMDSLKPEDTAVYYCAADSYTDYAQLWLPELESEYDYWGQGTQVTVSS V domain 2: QVQLVESGGGLVLPGESLRLSCVVSGTIDNINSMGWYRQAPGKQRELVAYITKLGSANYADSVEGRFTISRDNAKKTVHLQMNSLKPEDTAVYYCHANERGRITWAQGTQVTVSS 1.18

What value of HEK-Blue IL-18: Abs 405 has been reported for the following binder? DGL320 (bispecific antibody, V domains shown) V domain 1: QVQLQESGGGLVQPGGSLRLSCAASGSIFSTKGLGWYRQAPGEQRELVAGISSAGWIFYTQSVKGRFTMSRDNAKNTVYLQMNSLKPEDTAVYYCNSAQSGVPLRSWGQGTQVTVAS V domain 2: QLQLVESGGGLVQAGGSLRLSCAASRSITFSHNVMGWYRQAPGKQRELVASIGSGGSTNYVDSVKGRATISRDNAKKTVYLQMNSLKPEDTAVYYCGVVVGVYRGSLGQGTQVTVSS 2.36

Can you look up the measured HEK-Blue IL-18: Abs 405 of DGL306 (bispecific antibody, V domains shown) V domain 1: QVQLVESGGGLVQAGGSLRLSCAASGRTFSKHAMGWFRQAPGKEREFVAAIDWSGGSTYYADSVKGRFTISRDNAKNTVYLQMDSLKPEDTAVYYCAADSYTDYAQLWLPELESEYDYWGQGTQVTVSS V domain 2: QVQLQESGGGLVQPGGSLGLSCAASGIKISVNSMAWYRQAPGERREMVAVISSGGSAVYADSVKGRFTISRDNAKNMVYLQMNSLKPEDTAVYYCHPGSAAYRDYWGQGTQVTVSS for me? 1.41

Could you share which HEK-Blue IL-18: Abs 405 value was measured for DGL249 (bispecific antibody, V domains shown) V domain 1: QVQLVESGGGLVQPGGSLRLSCTASGSDLHHYAIGWFRQAPGKEREGVSCISTTGAGTNYADSVKGRFTISRDNAKNTVYLQMDSLKPEETAVYYCAADGPSAIAGCVRTVASMYRYWGQGAQVTVSS V domain 2: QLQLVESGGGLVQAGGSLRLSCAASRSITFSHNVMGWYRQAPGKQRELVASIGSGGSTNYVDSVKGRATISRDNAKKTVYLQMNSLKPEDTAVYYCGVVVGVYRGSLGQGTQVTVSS ? 0.12

Here's the next entry for you.
Item DGL314 (bispecific antibody, V domains shown) V domain 1: QVQLQESGGGLVQPGGSLRLSCAASGSIFSTKGLGWYRQAPGEQRELVAGISSAGWIFYTQSVKGRFTMSRDNAKNTVYLQMNSLKPEDTAVYYCNSAQSGVPLRSWGQGTQVTVAS V domain 2: QVQLVESGGGLVQAGGSLRLSCAASGMFFSIGEMGWYRQAPGKQREMVARITRDGRINYADSVEGRFTASRNVAKTTLFLQMNSLKPEDTANYQCTVRRWDEEYWGKGTLVTVSD has what recorded HEK-Blue IL-18: Abs 405? 0.83
